# systemUnderTest: UniProtKB O15151
# experimentDescription: Competitive fluorescence polarization assay for MDMX
# Format: binding
# protocolConditions: competitive FP assay, read-out: Ki (MDMX)
Where a SMILES comes first, the peptide text is derived from it. Bridges are numbered along the chain shown (N, C = ends). [ ]: non-standard residue; d: D form. Phe(4-COOH) = N[C@@H](Cc1ccc(C(=O)O)cc1)C(=O)O; R8 = C=CCCCCCC[C@@](C)(N)C(=O)O; Cba = N[C@@H](CC1CCC1)C(=O)O; hLeu = CC(C)CC[C@H](N)C(=O)O; S5 = C=CCCC[C@](C)(N)C(=O)O; Ac3c = NC1(C(=O)O)CC1
quantity: Ki

INSERT INTO measurements (compound, measurement) VALUES
  ('CC(=O)N[C@@H](CC(C)C)C(=O)N[C@H](C(=O)N[C@@H](Cc1ccccc1)C(=O)N[C@]1(C)CCCCCCC=CCCC[C@@](C)(C(=O)N[C@@H](CO)C(=O)N[C@@H](C)C(=O)N[C@@H](Cc2ccccc2)C(N)=O)NC(=O)[C@H](CC2CCC2)NC(=O)[C@H](CCC(N)=O)NC(=O)[C@H](C)NC(=O)[C@H](Cc2c[nH]c3ccccc23)NC(=O)[C@H](Cc2ccc(C(=O)O)cc2)NC(=O)[C@H](C)NC1=O)[C@@H](C)O [compound 260] (Ac-LTF[R8]A[Phe(4-COOH)]WAQ[Cba][S5]SAF-NH2; staple 4-11)', '10 to 100 nM');

Now, please, on to the next compound.
What value of Ki has been recorded for this entry: CC(=O)N[C@@H](Cc1ccccc1)C(=O)N[C@]1(C)CCCCCCC=CCCC[C@@](C)(C(=O)N[C@@H](C)C(=O)N[C@@H](C)C(=O)N[C@@H](CCC(C)C)C(N)=O)NC(=O)[C@H](CC(C)C)NC(=O)C2(CC2)NC(=O)[C@H](CCC(=O)O)NC(=O)[C@H](Cc2c[nH]c3ccccc23)NC(=O)[C@H](Cc2ccc(O)cc2)NC(=O)[C@H](C)NC1=O [compound 17] (Ac-F[R8]AYWE[Ac3c]L[S5]AA[hLeu]-NH2; staple 2-9) 10 to 100 nM

---

# systemUnderTest: MDM2 (Homo sapiens, UniProt Q00987)
# Sequence (Q00987 1-125): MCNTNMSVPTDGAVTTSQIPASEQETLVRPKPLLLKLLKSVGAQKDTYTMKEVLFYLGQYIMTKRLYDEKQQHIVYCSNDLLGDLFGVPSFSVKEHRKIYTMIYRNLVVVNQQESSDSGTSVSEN
# experimentDescription: Competitive fluorescence polarization assay for MDM2
# Type: binding
# protocolConditions: competitive FP assay, MDM2; read-out: IC50 (MDM2)
pIC50: −log10 of the molar value. Where a SMILES comes first, the peptide text is derived from it. Bridges are numbered along the chain shown (N, C = ends). [ ]: non-standard residue; d: D form. R8 = C=CCCCCCC[C@@](C)(N)C(=O)O; Cba = N[C@@H](CC1CCC1)C(=O)O; S5 = C=CCCC[C@](C)(N)C(=O)O; Nle = CCCC[C@H](N)C(=O)O
quantity: pIC50

INSERT INTO measurements (compound, systemundertest, measurement) VALUES
  ('CCCC[C@H](NC(=O)[C@H](C)NC(=O)[C@H](CCC(N)=O)NC(=O)[C@H](Cc1c[nH]cn1)NC(=O)[C@]1(C)CCCC=CCCCCCC[C@@](C)(NC(=O)[C@H](Cc2ccccc2)NC(C)=O)C(=O)N[C@@H](C)C(=O)N[C@@H](Cc2ccc(O)cc2)C(=O)N[C@@H](Cc2c[nH]c3ccccc23)C(=O)N[C@@H](CO)C(=O)N[C@@H](C)C(=O)N[C@@H](CC(C)C)C(=O)N1)C(N)=O [compound 39] (Ac-F[R8]AYWSAL[S5]HQA[Nle]-NH2; staple 2-9)', 'MDM2 (Homo sapiens, UniProt Q00987)', '< 6.00');

What value of pIC50 has been recorded for this entry: CCCC[C@H](NC(=O)[C@H](C)NC(=O)[C@H](C)NC(=O)[C@]1(C)CCCC=CCCCCCC[C@@](C)(NC(=O)[C@H](Cc2ccccc2)NC(=O)[C@@H](NC(=O)[C@H](CC(C)C)NC(C)=O)[C@@H](C)O)C(=O)N[C@@H](C)C(=O)N[C@@H](Cc2ccc(O)cc2)C(=O)N[C@@H](Cc2c[nH]c3ccccc23)C(=O)N[C@@H](C)C(=O)N[C@@H](CCC(N)=O)C(=O)N[C@@H](CC2CCC2)C(=O)N1)C(=O)N[C@@H](C)C(N)=O [compound 236] (Ac-LTF[R8]AYWAQ[Cba][S5]AA[Nle]A-NH2; staple 4-11) 7.00 to 8.00

---

# systemUnderTest: MDMX (Homo sapiens, UniProt O15151)
# Sequence (O15151 1-125): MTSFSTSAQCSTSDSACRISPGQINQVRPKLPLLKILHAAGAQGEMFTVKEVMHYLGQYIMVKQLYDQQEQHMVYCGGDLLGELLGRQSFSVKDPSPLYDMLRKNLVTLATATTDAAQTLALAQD
# experimentDescription: Competitive fluorescence polarization assay for MDMX
# Assay type: binding
# protocolConditions: competitive FP assay, read-out: Ki (MDMX)
pKi: −log10 of the molar value. Where a SMILES comes first, the peptide text is derived from it. Bridges are numbered along the chain shown (N, C = ends). [ ]: non-standard residue; d: D form. R8 = C=CCCCCCC[C@@](C)(N)C(=O)O; Cba = N[C@@H](CC1CCC1)C(=O)O; S5 = C=CCCC[C@](C)(N)C(=O)O
Reported pKi values are given for each entry in this list.

Past entries and their recorded results:
INSERT INTO assay_data (molecule, measurement) VALUES
  ('CC(=O)N[C@@H](CC(C)C)C(=O)N[C@H](C(=O)N[C@@H](Cc1ccccc1)C(=O)N[C@]1(C)CCCCCCC=CCCC[C@@](C)(C(=O)N[C@@H](CO)C(=O)N[C@@H](C)C(=O)N[C@@H](C)C(N)=O)NC(=O)[C@H](CC2CCC2)NC(=O)[C@H](CCC(N)=O)NC(=O)[C@H](C)NC(=O)[C@H](Cc2c[nH]c3ccccc23)NC(=O)[C@H](Cc2ccc(O)cc2)NC(=O)[C@H](C)NC1=O)[C@@H](C)O [compound 255] (Ac-LTF[R8]AYWAQ[Cba][S5]SAA-NH2; staple 4-11)', '7.00 to 8.00'),
  ('CCCC[C@H](NC(=O)[C@H](C)NC(=O)[C@H](C)NC(=O)C(C)(C)NC(=O)[C@H](CC(C)C)NC(=O)[C@H](CCC(N)=O)NC(=O)[C@H](C)NC(=O)[C@H](Cc1c[nH]c2ccccc12)NC(=O)[C@H](Cc1ccc(O)cc1)NC(=O)[C@H](C)NC(=O)C(C)(C)NC(=O)[C@H](Cc1ccccc1)NC(=O)[C@@H](NC(=O)[C@H](CC(C)C)NC(C)=O)[C@@H](C)O)C(=O)N[C@@H](C)C(N)=O [compound 412]', '> 8.00');

Now, please, on to the next molecule.
Entry CC(=O)N[C@@H](CCC(=O)O)C(=O)N[C@H](C(=O)N[C@@H](Cc1ccccc1)C(=O)N[C@]1(C)CCCCCCC=CCCC[C@@](C)(C(=O)N[C@@H](CO)C(=O)N[C@@H](C)C(=O)N[C@H](C)C(N)=O)NC(=O)[C@H](CC(C)C)NC(=O)[C@H](CCC(N)=O)NC(=O)[C@H](C)NC(=O)[C@H](Cc2c[nH]c3ccccc23)NC(=O)[C@H](Cc2ccc(O)cc2)NC(=O)[C@H](C(C)C)NC1=O)[C@@H](C)O [compound 124] (Ac-ETF[R8]VYWAQL[S5]SA[dA]-NH2; staple 4-11) , system MDMX (Homo sapiens, UniProt O15151): what pKi was measured? 7.00 to 8.00

---

# systemUnderTest: MDM2 (Homo sapiens, UniProt Q00987)
# experimentDescription: Competitive fluorescence polarization assay for MDM2
# Type: binding
# protocolConditions: competitive FP assay, MDM2; read-out: IC50 (MDM2)
Where a SMILES comes first, the peptide text is derived from it. Bridges are numbered along the chain shown (N, C = ends). [ ]: non-standard residue; d: D form. R8 = C=CCCCCCC[C@@](C)(N)C(=O)O; hLeu = CC(C)CC[C@H](N)C(=O)O; S5 = C=CCCC[C@](C)(N)C(=O)O; Nle = CCCC[C@H](N)C(=O)O
Reported IC50 values are given for each entry in this list.

Past entries and their recorded results:
INSERT INTO assay_data (compound, measurement) VALUES
  ('CC(=O)N[C@@H](CCC(=O)O)C(=O)N[C@H](C(=O)N[C@@H](Cc1ccccc1)C(=O)N[C@]1(C)CCCCCCC=CCCC[C@@](C)(C(=O)N[C@@H](CO)C(=O)N[C@@H](Cc2c[nH]c3ccccc23)C(=O)N[C@@H](C)C(N)=O)NC(=O)[C@H](CC(C)C)NC(=O)[C@H](CCC(N)=O)NC(=O)[C@H](C)NC(=O)[C@H](Cc2c[nH]c3ccccc23)NC(=O)[C@H](Cc2ccc(O)cc2)NC(=O)[C@H](CCCCN)NC1=O)[C@@H](C)O [compound 129] (Ac-ETF[R8]KYWAQL[S5]SWA-NH2; staple 4-11)', '< 10 nM'),
  ('CC(=O)N[C@@H](CC(C)C)C(=O)N[C@H](C(=O)N[C@@H](Cc1ccccc1)C(=O)N[C@]1(C)CCCCCCC=CCCC[C@@](C)(C(=O)N[C@@H](C)C(=O)N[C@@H](C)C(=O)N[C@@H](Cc2ccccc2)C(=O)N[C@H](C)C(N)=O)NC(=O)[C@H](CC(C)C)NC(=O)[C@H](CCC(N)=O)NC(=O)[C@H](C)NC(=O)[C@H](Cc2c[nH]c3ccccc23)NC(=O)[C@H](Cc2ccc(O)cc2)NC(=O)[C@H](CCC(=O)O)NC1=O)[C@@H](C)O (single isomer, unassigned)', '< 10 nM'),
  ('CCCC[C@H](NC(=O)[C@H](C)NC(=O)[C@H](C)NC(=O)[C@]1(C)CCCC=CCCCCCC[C@@](C)(NC(=O)[C@H](Cc2ccccc2)NC(=O)[C@@H](NC(=O)[C@H](CC(C)C)NC(C)=O)[C@@H](C)O)C(=O)N[C@@H](CCC(=O)O)C(=O)N[C@@H](Cc2ccc(O)cc2)C(=O)N[C@@H](Cc2c[nH]c3ccccc23)C(=O)N[C@@H](C)C(=O)N[C@@H](CCC(N)=O)C(=O)N[C@@H](CCC(C)C)C(=O)N1)C(=O)N[C@@H](C)C(=O)N[C@@H](C)C(N)=O [compound 381] (Ac-LTF[R8]EYWAQ[hLeu][S5]AA[Nle]AA-NH2; staple 4-11)', '10 to 100 nM');

Now, please, on to the next compound.
What value of IC50 has been recorded for this entry: CCCC[C@H](NC(=O)[C@H](C)NC(=O)[C@H](C)NC(=O)C(C)(C)NC(=O)[C@H](CC(C)C)NC(=O)[C@H](CCC(N)=O)NC(=O)[C@H](C)NC(=O)[C@H](Cc1c[nH]c2ccccc12)NC(=O)[C@H](Cc1ccc(O)cc1)NC(=O)[C@H](C)NC(=O)C(C)(C)NC(=O)[C@H](Cc1ccccc1)NC(=O)[C@@H](NC(=O)[C@H](CC(C)C)NC(C)=O)[C@@H](C)O)C(=O)N[C@@H](C)C(N)=O < 10 nM
